# experiment-summary: PP-LFER solute descriptor determination from GC retention and partition coefficient data
# Type: physicochemical
Provide the recorded Solute descriptor L (logarithmic hexadecane/air partition coefficient, KHxd/air) for the entries that follow.
Answer with a number only.

Prompt line: Data request, read-out Solute descriptor L (logarithmic hexadecane/air partition coefficient, KHxd/air), for OCCC(F)(F)C(F)(F)C(F)(F)C(F)(F)C(F)(F)C(F)(F)C(F)(F)C(F)(F)C(F)(F)C(F)(F)F
Response line: 4.117

Prompt line: Data request, read-out Solute descriptor L (logarithmic hexadecane/air partition coefficient, KHxd/air), for FC(F)(F)C(F)(F)C(F)(F)C(F)(F)C(F)(F)C(F)(F)C(F)(F)C(F)(F)C(F)(F)C(F)(F)C(F)(F)C(F)(F)F
Response line: 2.362

Prompt line: Data request, read-out Solute descriptor L (logarithmic hexadecane/air partition coefficient, KHxd/air), for FC(OC(F)(F)C(F)(OC(F)(F)C(F)(OC(F)(F)C(F)(OC(F)(F)C(F)(OC(F)(F)C(F)(F)C(F)(F)F)C(F)(F)F)C(F)(F)F)C(F)(F)F)C(F)(F)F)C(F)(F)F (stereo not shown)
Response line: 3.128

Prompt line: Data request, read-out Solute descriptor L (logarithmic hexadecane/air partition coefficient, KHxd/air), for C=CC(=O)OCCC(F)(F)C(F)(F)C(F)(F)C(F)(F)C(F)(F)C(F)(F)C(F)(F)C(F)(F)C(F)(F)C(F)(F)F [10:2 FTAC, 1H,1H,2H,2H-Perfluorododecyl acrylate]
Response line: 5.221

###

# experiment-summary: Octanol/water partition coefficient (Kow), shared-headspace method
# Type: physicochemical
# assay-conditions: 25 °C; shared-headspace method (SH)
Provide the recorded Measured Log Kow, Mean ± SD for the entries that follow.
Answer with a number only.

Prompt line: Data request, read-out Measured Log Kow, Mean ± SD, for OCCCC(F)(F)C(F)(F)C(F)(F)F
Response line: 2.46

Prompt line: Data request, read-out Measured Log Kow, Mean ± SD, for CC(O)C(F)(F)C(F)(F)C(F)(F)C(F)(F)C(F)(F)F (stereo not drawn)
Response line: 3.80

Prompt line: Data request, read-out Measured Log Kow, Mean ± SD, for FC(F)C(F)(F)C(F)(F)C(F)(F)C(F)(F)C(F)(F)CI [6:1 FTI-7H, 1H,1H,7H-Perfluoroheptyl iodide]
Response line: 4.90

Prompt line: Data request, read-out Measured Log Kow, Mean ± SD, for FC(F)(F)C(F)(F)C(F)(F)C(F)(F)C(F)(F)C(F)(F)CI [6:1 FTI, 1H,1H-Perfluoroheptyl iodide]
Response line: 5.57

Prompt line: Data request, read-out Measured Log Kow, Mean ± SD, for OCC(F)(F)C(F)(F)C(F)(F)C(F)(F)C(F)(F)C(F)(F)C(F)(F)F
Response line: 5.01

Prompt line: Data request, read-out Measured Log Kow, Mean ± SD, for OCCCCC(F)(F)C(F)(F)C(F)(F)C(F)(F)F
Response line: 3.54

###

# experiment-summary: PP-LFER solute descriptor determination from GC retention and partition coefficient data
# Type: physicochemical
# assay-conditions: 25 °C; updated in the iterative calculation
Provide the recorded Solute descriptor L (logarithmic hexadecane/air partition coefficient, KHxd/air) for the entries that follow.
Answer with a number only.

Prompt line: Data request, read-out Solute descriptor L (logarithmic hexadecane/air partition coefficient, KHxd/air), for NS(=O)(=O)C(F)(F)C(F)(F)C(F)(F)C(F)(F)C(F)(F)C(F)(F)F [PFHxSA, Perfluorohexanesulfonamide]
Response line: 4.189

Prompt line: Data request, read-out Solute descriptor L (logarithmic hexadecane/air partition coefficient, KHxd/air), for C=CC(F)(F)C(F)(F)C(F)(F)C(F)(F)F [4:2 FTO, 1H,1H,2H-Perfluoro-1-hexene]
Response line: 1.451

Prompt line: Data request, read-out Solute descriptor L (logarithmic hexadecane/air partition coefficient, KHxd/air), for FC(F)(F)C(F)(F)C(F)(F)C(F)(F)C(F)(F)C(F)(F)C(F)(F)C(F)(F)C(F)(F)F [PFN, Perfluorononane]
Response line: 1.571

Prompt line: Data request, read-out Solute descriptor L (logarithmic hexadecane/air partition coefficient, KHxd/air), for C=C(C)C(=O)OCCC(F)(F)C(F)(F)C(F)(F)C(F)(F)C(F)(F)C(F)(F)F [6:2 FTMAC, 1H,1H,2H,2H-Perfluorooctyl methacrylate]
Response line: 4.553
